Data origin: the Immune Epitope Database (IEDB)

target: HLA-A*03:01; assay: IEDB peptide-MHC binding, purified MHC/competitive/fluorescence; filed as Kd, often an IC50 or EC50 that approximates it; bounds were set here for any values at or beyond the usual limits of such assays; conditions: source organism: Influenza A virus (A/swine/Finistere/127/99(H3N2))
measuredParameter: pKd
Reminder that pKd is minus the log10 of a molar concentration.

Per the reported HLA-A*03:01 data, `YMFESKRMK` has pKd of 7.71

---

Overview of recorded Kd for various sequences
molecular target: HLA-A*03:01; assay: IEDB peptide-MHC binding, purified MHC/direct/fluorescence; filed as Kd, often an IC50 or EC50 that approximates it; bounds were set here for any values at or beyond the usual limits of such assays; settings: source organism: Homo sapiens
The reply should contain only the number, in µM.

# Kd of `KSDLQPPNY` = 18.7

***
// `MCFHQHLMY` : Kd value = 13.6
